The molecules listed here are annotated with their min SC luc (%).
Test system: CMV-luc
Measurement Notes: Secondary assays: CMV-luc in SC cells, Bright-Glo
Format: cell-based, human
Condition Context: minimum CMV-luc signal in SC cells over 12 doses; summary data
Method: Compounds were plated at 2× concentrations in phenol red–free DMEM in 25 μl in 384-well plates with each compound dose plated in triplicate. […] Cells were grown 24 h and then assayed first by using the CellTiter-Fluor reagent (20 μl) followed by the addition of Bright-Glo (65 μl) luciferase assay, using a multimode plate reader (Beckman; DT880). […] IC50s were determined by the Hill coefficient method using an online tool (https://www.aatbio.com/tools/ic50-calculator).

{"Molecule": "C=CCn1c(=O)c2cnc(Nc3ccc(N4CCN(C)CC4)cc3)nc2n1-c1cccc(C(C)(C)O)n1", "min SC luc (%)": "63.0447%"}
{"Molecule": "C[C@@H]1O[C@@H](O[C@H]2C[C@@H](O)[C@]3(CO)[C@H]4[C@H](O)C[C@]5(C)[C@@H](C6=CC(=O)OC6)CC[C@]5(O)[C@@H]4CC[C@]3(O)C2)[C@H](O)[C@H](O)[C@H]1O", "min SC luc (%)": "122.219%"}
{"Molecule": "CCC(=C/[C@H](C)C/C=C/C(C)=C/[C@@H](C)C(=O)[C@@H](C)[C@H](O)[C@@H](C)C/C(C)=C/C(=O)O)/C=C/[C@@H]1OC(=O)C=C[C@@H]1C", "min SC luc (%)": "90.0621%"}
{"Molecule": "Oc1ccc(-c2ccc(-c3cc(Nc4cccc(CNC5CC5)c4)n[nH]3)cc2)c(O)c1", "min SC luc (%)": "54.3112%"}
{"Molecule": "S=C(NCc1ccc2c(c1)OCO2)N1CCN(c2ncnc3c2oc2ccccc23)CC1", "min SC luc (%)": "74.2577%"}
{"Molecule": "O=C(Nc1cccc(Nc2ncc(Br)c(NCCc3cnc[nH]3)n2)c1)N1CCCC1", "min SC luc (%)": "100.351%"}
{"Molecule": "CCNC(=O)c1cc2c(-c3cc(OCCN4CCCC4)c(Cl)cc3Cl)nc(N)nc2s1", "min SC luc (%)": "85.4541%"}
{"Molecule": "O=c1[nH]c2ccc(Cl)cc2c(N[C@@H]2CN3CCC2CC3)c1-c1nc2ccccc2[nH]1", "min SC luc (%)": "69.3978%"}
{"Molecule": "COc1cc2ncn(-c3cc(OCc4ccccc4C(F)(F)F)c(C(N)=O)s3)c2cc1OC [NCGC00242217-04, GW843682X]", "min SC luc (%)": "87.9923%"}
{"Molecule": "O=C(O)c1ccc2c(c1)nc(Nc1cccc(Cl)c1)c1ccncc12", "min SC luc (%)": "93.7801%"}
{"Molecule": "C[C@H]1O[C@@H](O[C@H]2[C@@H](O)C[C@H](O[C@H]3[C@@H](O)C[C@H](O[C@H]4CC[C@@]5(C)[C@H](CC[C@@H]6[C@@H]5C[C@@H](O)[C@]5(C)[C@@H](C7=CC(=O)OC7)CC[C@]65O)C4)O[C@@H]3C)O[C@@H]2C)C[C@H](O)[C@@H]1O", "min SC luc (%)": "107.579%"}
{"Molecule": "O=C1NC(=O)/C(=C/c2ccc3nccc(-c4ccncc4)c3c2)S1", "min SC luc (%)": "85.5514%"}
{"Molecule": "Nc1ccc(-c2ccc3ncc4ccc(=O)n(-c5cccc(C(F)(F)F)c5)c4c3c2)cn1", "min SC luc (%)": "128.375%"}

====

Measured viability at 1 µM, listed per entry for reference.
Test system: H2 and S1 cells
Measurement Notes: Paired MTT viability assay, average of H2 and S1 cells (1 and 10 uM)
Format: cell-based, human
Condition Context: Homo sapiens, 1 uM compound, read-out: H2&S1 ave MTT 1uM

{"Smiles Structure": "CC1=CC(=O)c2ccccc2C1=O", "viability at 1 µM": "153%"}
{"Smiles Structure": "C[C@]12CC[C@H](O)C[C@H]1CC[C@@H]1[C@@H]2CC[C@]2(C)[C@@H](C3=CC(=O)OC3)CC[C@]12O", "viability at 1 µM": "81.6%"}
{"Smiles Structure": "CC(C)=CCc1c(O)cc2occ(-c3ccc4c(c3)OCO4)c(=O)c2c1O", "viability at 1 µM": "107%"}
{"Smiles Structure": "O=c1[nH]c(=O)n([C@H]2C[C@H](O)[C@@H](CO)O2)cc1C(F)(F)F", "viability at 1 µM": "80.3%"}

====

Measurement Notes: in vitro
Condition Context: human

{"Molecule": "C=CCn1c(=O)c2cnc(Nc3ccc(N4CCN(C)CC4)cc3)nc2n1-c1cccc(C(C)(C)O)n1 [NCGC00263183-01, MK 1775]", "Unit Name": "%", "viability at 24 h": 77.9}
{"Molecule": "CC1(C)CC(=O)c2c(C(F)(F)F)nn(-c3ccc(C(N)=O)c(N[C@H]4CC[C@H](O)CC4)c3)c2C1 [NCGC00346633-01, SNX 2112]", "Unit Name": "%", "viability at 24 h": 83.3}
{"Molecule": "CNC(=O)c1cc(Oc2ccc(NC(=O)Nc3cc(C(C)(C)C)nn3-c3ccc4ncccc4c3)c(F)c2)ccn1 [NCGC00263172-01, DCC-2036]", "Unit Name": "%", "viability at 24 h": 56.6}
{"Molecule": "C[C@@H]1O[C@@H](O[C@@H]2C=C3CC[C@@H]4[C@H](CC[C@]5(C)[C@@H](c6ccc(=O)oc6)CC[C@]45O)[C@@]3(C)CC2)[C@H](O)[C@H](O)[C@H]1O [Proscillaridin A]", "Unit Name": "%", "viability at 24 h": 74.2}
{"Molecule": "O=C(NC1CCNCC1)c1[nH]ncc1NC(=O)c1c(Cl)cccc1Cl [NCGC00263091-01, AT7519]", "Unit Name": "%", "viability at 24 h": 50.3}
{"Molecule": "C=CCNC1=C2C[C@@H](C)C[C@H](OC)[C@H](O)[C@@H](C)/C=C(\\C)[C@H](OC(N)=O)[C@@H](OC)/C=C\\C=C(/C)C(=O)NC(=CC1=O)C2=O [NCGC00163424-03, tanespimycin]", "Unit Name": "%", "viability at 24 h": 83.6}

====

System: S2, H2 or SC cells
Measurement Notes: in vitro
Doc: threshold 90% (exclusive). Items with min viability (%) beneath it return Yes; others return No.

{"Smiles Structure": "Cc1ccc(-c2ncn(-c3ccc(Nc4nccc(-c5cccc(N6CCOCC6)c5)n4)cc3)n2)cn1", "System": "S2, H2 or SC cells", "Qualitative Label": "Yes"}
{"Smiles Structure": "Oc1ccc(-c2ccc(-c3cc(Nc4cccc(CNC5CC5)c4)n[nH]3)cc2)c(O)c1", "System": "S2, H2 or SC cells", "Qualitative Label": "Yes"}
{"Smiles Structure": "O=C(Nc1cccc(Nc2ncc(Br)c(NCCc3cnc[nH]3)n2)c1)N1CCCC1", "System": "S2, H2 or SC cells", "Qualitative Label": "Yes"}
{"Smiles Structure": "Cc1cccc(Nc2nc(N[C@@H]3CCCC[C@H]3N)ncc2C(N)=O)c1", "System": "S2, H2 or SC cells", "Qualitative Label": "No"}
{"Smiles Structure": "CCc1c(O)cc(O)c(C(=O)c2ccc(OCCN3CCOCC3)c(OC)c2)c1CC(=O)N(CCOC)CCOC", "System": "S2, H2 or SC cells", "Qualitative Label": "No"}
{"Smiles Structure": "O=C(O)c1ccc2c(c1)nc(Nc1cccc(Cl)c1)c1ccncc12", "System": "S2, H2 or SC cells", "Qualitative Label": "Yes"}

====

System: H2 and S1 cells
Measurement Notes: Paired MTT viability assay, average of H2 and S1 cells (1 and 10 uM)
Type: cell-based, human
Condition Context: Homo sapiens, 1 uM compound, read-out: H2&S1 ave MTT 1uM
Counter-ions that a name gives are not always drawn.

{"Compound": "CC[C@H]1CN2CCc3cc(OC)c(OC)cc3[C@@H]2C[C@@H]1C[C@H]1NCCc2cc(OC)c(OC)cc21 [Emetine dihydrochloride]", "System": "H2 and S1 cells", "viability at 1 µM": "59.7%"}
{"Compound": "C[C@]12CC[C@H](O)C[C@H]1CC[C@@H]1[C@@H]2C[C@@H](O)[C@]2(C)[C@@H](C3=CC(=O)OC3)CC[C@]12O", "System": "H2 and S1 cells", "viability at 1 µM": "60.4%"}
{"Compound": "C[C@H]1O[C@@H](O[C@H]2[C@@H](O)C[C@H](O[C@H]3[C@@H](O)C[C@H](O[C@H]4CC[C@@]5(C)[C@H](CC[C@@H]6[C@@H]5CC[C@]5(C)[C@@H](C7=CC(=O)OC7)[C@@H](O)C[C@]65O)C4)O[C@@H]3C)O[C@@H]2C)C[C@H](O)[C@@H]1O", "System": "H2 and S1 cells", "viability at 1 µM": "28.7%"}
{"Compound": "COC(=O)C1=C(C)NC(C)=C(C(=O)OCCN(C)Cc2ccccc2)C1c1cccc([N+](=O)[O-])c1 (centres unmarked)", "System": "H2 and S1 cells", "viability at 1 µM": "140%"}
{"Compound": "[H]/N=C(/NCCCCC)N/N=C/c1c[nH]c2ccc(OC)cc12 [TEGASEROD MALEATE]", "System": "H2 and S1 cells", "viability at 1 µM": "106%"}
{"Compound": "C[C@@H]1O[C@@H](O[C@H]2C[C@@H](O)[C@]3(CO)[C@H]4[C@H](O)C[C@]5(C)[C@@H](C6=CC(=O)OC6)CC[C@]5(O)[C@@H]4CC[C@]3(O)C2)[C@H](O)[C@H](O)[C@H]1O", "System": "H2 and S1 cells", "viability at 1 µM": "51.8%"}
{"Compound": "COc1ccc(CN2CCN(C(c3ccc(F)cc3)c3ccc(F)cc3)CC2)c(OC)c1OC [LOMERIZINE DiHCl]", "System": "H2 and S1 cells", "viability at 1 µM": "101%"}
{"Compound": "CC(N/C(=N\\C#N)Nc1ccncc1)C(C)(C)C (centres unmarked)", "System": "H2 and S1 cells", "viability at 1 µM": "107%"}
{"Compound": "C[C@@H]1O[C@@H](O[C@H]2CC[C@]3(C=O)[C@H]4CC[C@]5(C)[C@@H](C6=CC(=O)OC6)CC[C@]5(O)[C@@H]4CC[C@]3(O)C2)[C@H](O)[C@H](O)[C@H]1O", "System": "H2 and S1 cells", "viability at 1 µM": "62.2%"}
{"Compound": "CN1CCN(CCCN2c3ccccc3Sc3ccc(C(F)(F)F)cc32)CC1 [TRIFLUOPERAZINE HYDROCHLORIDE]", "System": "H2 and S1 cells", "viability at 1 µM": "88.1%"}
{"Compound": "CC(=O)Oc1cccc(O)c1 [RESORCINOL MONOACETATE]", "System": "H2 and S1 cells", "viability at 1 µM": "115%"}
